# EXPERIMENTAL_DETAILS: wn = mass fraction of the nth substance listed
# SETUP_CONDITIONS: 400 K; 7000 kPa; Gas; Steady Flow; w1 = 0.5
QUANTITY_NAME: binary diffusion coefficient (m2/s)
Provide only the numeric value, understood in m2/s.

[Q] Could you share which binary diffusion coefficient value was measured for [HH] [hydrogen] + C ?
[A] 1.82e-05

[Q] Could you share which binary diffusion coefficient value was measured for [HH] [hydrogen] + CCC ?
[A] 4.5e-06

[Q] Could you share which binary diffusion coefficient value was measured for [HH] [hydrogen] + N#N ?
[A] 2.05e-05

[Q] Could you share which binary diffusion coefficient value was measured for [HH] [hydrogen] + CC ?
[A] 1.15e-05
